# tested_system: Nuclear receptor ROR-gamma (Homo sapiens)
# test_protocol: qHTS assay to identify small molecule antagonists of the retinoid-related orphan receptor gamma (ROR-gamma) signaling pathway (AID 1159521; further: nearly all actives have a fitted effect of over 50% in size)
# protocol_conditions: Tet-on RORgamma CHO cells, RORE-luciferase, 16 h; series mostly up to 92.4 µM
Inconclusive results are not listed. Activity calls are given as the source filed them. The call rests on the fitted dose curve; in most records, active means well fitted inhibition curve with a large enough effect in the repeat runs; inconclusive means weak or mixed curves, or effect the other way; inactive means no such curve, though single readings can be large or run the other way.
One label from this list, please: 1 (active), -1 (inactive)

Worked set:
- compound: "Nc1ccc2c(c1)C(=O)c1ccccc1C2=O"
  tested_system: "Nuclear receptor ROR-gamma (Homo sapiens)"
  class_name: -1
- compound: "CC(=O)Oc1ccc(C(c2ccc(OC(C)=O)cc2)c2ccccn2)cc1"
  tested_system: "Nuclear receptor ROR-gamma (Homo sapiens)"
  class_name: -1
- compound: "CC(C)[N+](C)(CCOC(=O)C1c2ccccc2Oc2ccccc21)C(C)C"
  tested_system: "Nuclear receptor ROR-gamma (Homo sapiens)"
  class_name: -1
- compound: "CCCCCCOCCOCCO"
  tested_system: "Nuclear receptor ROR-gamma (Homo sapiens)"
  class_name: -1

Request: Check the results log: what was the call for "C=CN1CCCC1=O" ?
Response: -1

Request: Check the results log: what was the call for "O=C(O)c1cc(=O)[nH]c(=O)[nH]1" ?
Response: -1

Request: Check the results log: what was the call for "Brc1nc2ccccc2s1" ?
Response: -1

Request: Check the results log: what was the call for "O=C(CCCN1CCC(O)(c2ccc(Cl)cc2)CC1)c1ccc(F)cc1" ?
Response: -1

Request: Check the results log: what was the call for "IC(I)I" ?
Response: -1

Request: Check the results log: what was the call for "O=[Se](O)O" ?
Response: 1
